Target: T1, purified recombinant MHC II protein, allele DRB1*0801 (human)
T1 construct: bought from Benaroya Research Institute; also called MHC-II DR molecule
Assay: MHC II competition binding assay;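 further: Peptide–MHC II complexes pulled from equilibrium mixtures onto ELISA plates carrying a conformation-specific anti-HLA-DR antibody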
assay_metric: IC50 (µM)
Output spec: scalar in µM, unitless text.

GVDFFMNIGTPVHAISSGKIV (synthetic mutated peptide of the lysostaphin catalytic domain; also called K46H) [cluster 2 peptide with Lys46His] yielded IC50 of 87.5
